Parameter EGFR % Activity Set2: see the listing below.
- Test target: EGFR (Homo sapiens, UniProt P00533)
- Sequence (P00533 25-1210): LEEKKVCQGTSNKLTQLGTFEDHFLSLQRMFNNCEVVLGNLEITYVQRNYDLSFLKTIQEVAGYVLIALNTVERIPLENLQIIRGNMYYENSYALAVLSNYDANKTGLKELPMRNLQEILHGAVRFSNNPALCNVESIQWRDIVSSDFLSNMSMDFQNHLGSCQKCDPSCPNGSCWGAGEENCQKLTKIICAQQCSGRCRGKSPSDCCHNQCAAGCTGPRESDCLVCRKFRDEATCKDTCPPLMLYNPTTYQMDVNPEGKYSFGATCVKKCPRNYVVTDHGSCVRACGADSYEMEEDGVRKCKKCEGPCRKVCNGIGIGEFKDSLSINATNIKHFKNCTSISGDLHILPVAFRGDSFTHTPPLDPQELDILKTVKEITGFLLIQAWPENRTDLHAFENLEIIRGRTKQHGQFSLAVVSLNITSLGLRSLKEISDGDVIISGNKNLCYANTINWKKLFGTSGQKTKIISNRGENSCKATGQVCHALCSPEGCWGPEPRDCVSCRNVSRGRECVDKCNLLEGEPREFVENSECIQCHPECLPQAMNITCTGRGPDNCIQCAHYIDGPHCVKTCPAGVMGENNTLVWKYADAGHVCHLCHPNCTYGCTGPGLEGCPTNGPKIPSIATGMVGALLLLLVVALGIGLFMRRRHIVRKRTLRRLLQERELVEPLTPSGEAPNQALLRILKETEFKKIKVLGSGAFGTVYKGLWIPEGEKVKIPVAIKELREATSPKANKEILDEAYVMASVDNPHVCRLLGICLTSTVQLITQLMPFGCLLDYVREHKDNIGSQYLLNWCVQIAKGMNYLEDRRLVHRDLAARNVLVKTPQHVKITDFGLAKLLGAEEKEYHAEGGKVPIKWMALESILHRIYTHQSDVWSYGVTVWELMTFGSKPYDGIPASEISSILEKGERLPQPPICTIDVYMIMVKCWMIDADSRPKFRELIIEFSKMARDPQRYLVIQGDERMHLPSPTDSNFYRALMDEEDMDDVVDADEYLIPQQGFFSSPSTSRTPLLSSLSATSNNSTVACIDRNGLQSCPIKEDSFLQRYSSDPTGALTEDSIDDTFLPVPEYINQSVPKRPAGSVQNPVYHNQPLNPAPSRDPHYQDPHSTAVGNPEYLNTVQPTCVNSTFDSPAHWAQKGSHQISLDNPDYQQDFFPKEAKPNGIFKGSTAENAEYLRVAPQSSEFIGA
- Protocol description: ADP-Glo kinase assay, EGFR
- Type: biochemical
- Set-up: purchased BPS Bioscience (assay run externally by the vendor)
- Condition info: Log[nM] 5.0; Set2
Give just the number in %; leave the unit off.

Prompt: Given Clc1ccc(Nc2ncnc3[nH]ccc23)cc1Cl [Compound 5] , state its recorded EGFR % Activity Set2.
Response: 3

###

- Test target: aurora A kinase (AURKA) (Homo sapiens, UniProt O14965)
- Construct: purchased BPS Bioscience (assay run externally by the vendor)
- Protocol description: ADP-Glo kinase assay, Aurora A
- Assay type: biochemical
- Condition info: Log[nM] 4.0; Set3
Assay metric: Aurora A % Activity Set3 (%)
Give just the number in %; leave the unit off.

Completed entries (count: 4):
| Structure notation | Assay metric | Data value |
| --- | --- | --- |
| c1ccc(Cc2ccc(Nc3ncnc4[nH]ccc34)cc2)cc1 | Aurora A % Activity Set3 | 31 |
| Brc1ccc(Nc2ncnc3[nH]ccc23)cc1 | Aurora A % Activity Set3 | 20 |
| c1ccc(Oc2ccc(Nc3ncnc4[nH]ccc34)cc2)cc1 | Aurora A % Activity Set3 | 44 |
| Brc1cccc(Nc2ncnc3[nH]ccc23)c1 | Aurora A % Activity Set3 | 14 |

We now examine a further molecule.
Prompt: Given Clc1ccc(Nc2ncnc3[nH]ccc23)cc1Br , state its recorded Aurora A % Activity Set3.
Response: 15

###

- Test target: aurora A kinase (AURKA) (Homo sapiens)
- Construct: purchased BPS Bioscience (assay run externally by the vendor)
- Sequence (O14965 1-403): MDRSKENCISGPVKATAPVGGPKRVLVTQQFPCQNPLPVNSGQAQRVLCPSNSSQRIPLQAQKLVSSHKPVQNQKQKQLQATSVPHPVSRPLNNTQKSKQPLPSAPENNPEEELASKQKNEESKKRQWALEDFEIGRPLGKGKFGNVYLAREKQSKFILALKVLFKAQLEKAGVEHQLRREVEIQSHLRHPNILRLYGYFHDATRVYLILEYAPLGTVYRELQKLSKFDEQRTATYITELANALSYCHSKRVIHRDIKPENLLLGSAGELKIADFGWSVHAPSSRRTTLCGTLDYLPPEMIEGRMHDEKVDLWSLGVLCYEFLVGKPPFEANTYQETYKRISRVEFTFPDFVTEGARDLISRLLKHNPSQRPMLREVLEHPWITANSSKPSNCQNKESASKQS
- Protocol description: ADP-Glo kinase assay, Aurora A
- Format: biochemical
- Condition info: Log[nM] 5.0; Set2
Parameter Aurora A % Activity Set2: see the listing below.
Give just the number in %; leave the unit off.

| Structure notation | Test target | Aurora A % Activity Set2, % |
| --- | --- | --- |
| Brc1cccc(Nc2ncnc3[nH]ccc23)c1 | aurora A kinase (AURKA) (Homo sapiens) | 5 |
| Clc1ccc(Nc2ncnc3[nH]ccc23)cc1Br | aurora A kinase (AURKA) (Homo sapiens) | 15 |
| Cc1ccccc1Nc1ncnc2[nH]ccc12 | aurora A kinase (AURKA) (Homo sapiens) | 11 |
| c1ccc(Cc2ccc(Nc3ncnc4[nH]ccc34)cc2)cc1 | aurora A kinase (AURKA) (Homo sapiens) | 26 |
| c1ccc(Nc2ncnc3[nH]ccc23)cc1 | aurora A kinase (AURKA) (Homo sapiens) | 5 |

Prompt: Value wanted: Aurora A % Activity Set2 (aurora A kinase (AURKA) (Homo sapiens)) of entry Nc1nc(Nc2cccc(Br)c2)c2cc[nH]c2n1
Response: 7

###

Parameter Aurora A % Activity Set3: see the listing below.
- Test target: aurora A kinase (AURKA) (Homo sapiens)
- Construct: purchased BPS Bioscience (assay run externally by the vendor)
- Sequence (O14965 1-403): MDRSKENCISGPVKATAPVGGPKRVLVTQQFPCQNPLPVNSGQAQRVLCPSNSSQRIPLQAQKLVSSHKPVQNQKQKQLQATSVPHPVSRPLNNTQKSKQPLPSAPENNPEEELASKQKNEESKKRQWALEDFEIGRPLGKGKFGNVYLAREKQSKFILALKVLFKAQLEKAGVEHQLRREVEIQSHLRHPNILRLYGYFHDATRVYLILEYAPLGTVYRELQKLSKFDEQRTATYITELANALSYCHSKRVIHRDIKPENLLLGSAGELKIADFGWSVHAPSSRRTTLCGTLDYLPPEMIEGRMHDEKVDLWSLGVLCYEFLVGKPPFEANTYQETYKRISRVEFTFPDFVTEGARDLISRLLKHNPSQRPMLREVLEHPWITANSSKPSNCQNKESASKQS
- Protocol description: ADP-Glo kinase assay, Aurora A
- Format: biochemical
- Condition info: Log[nM] 5.0; Set3
Give just the number in %; leave the unit off.

Completed entries (count: 5):
| Structure notation | Unit | Aurora A % Activity Set3 |
| --- | --- | --- |
| Brc1ccc(Nc2ncnc3[nH]ccc23)cc1 | % | 9 |
| COc1ccc(Nc2ncnc3[nH]ccc23)cc1 | % | 4 |
| Clc1ccc(Nc2ncnc3[nH]ccc23)cc1Br | % | 16 |
| Clc1ccccc1Nc1ncnc2[nH]ccc12 | % | 14 |
| Fc1cc(Nc2ncnc3[nH]ccc23)ccc1Cl | % | 5 |

Prompt: Value wanted: Aurora A % Activity Set3 (aurora A kinase (AURKA) (Homo sapiens)) of entry Clc1ccc(Nc2ncnc3[nH]ccc23)cc1Cl
Response: 13

Prompt: Value wanted: Aurora A % Activity Set3 (aurora A kinase (AURKA) (Homo sapiens)) of entry c1ccc(Nc2ncnc3[nH]ccc23)cc1
Response: 5

Prompt: Value wanted: Aurora A % Activity Set3 (aurora A kinase (AURKA) (Homo sapiens)) of entry Clc1ccc(Nc2ncnc3[nH]ccc23)cc1
Response: 9

Prompt: Value wanted: Aurora A % Activity Set3 (aurora A kinase (AURKA) (Homo sapiens)) of entry c1ccc(Oc2ccc(Nc3ncnc4[nH]ccc34)cc2)cc1
Response: 32

Prompt: Value wanted: Aurora A % Activity Set3 (aurora A kinase (AURKA) (Homo sapiens)) of entry FC(F)(F)c1cccc(Nc2ncnc3[nH]ccc23)c1
Response: 13

Prompt: Value wanted: Aurora A % Activity Set3 (aurora A kinase (AURKA) (Homo sapiens)) of entry Nc1nc(Nc2cccc(Br)c2)c2cc[nH]c2n1
Response: 8

###

- Test target: aurora A kinase (AURKA) (Homo sapiens, UniProt O14965)
- Construct: purchased BPS Bioscience (assay run externally by the vendor)
- Sequence (O14965 1-403): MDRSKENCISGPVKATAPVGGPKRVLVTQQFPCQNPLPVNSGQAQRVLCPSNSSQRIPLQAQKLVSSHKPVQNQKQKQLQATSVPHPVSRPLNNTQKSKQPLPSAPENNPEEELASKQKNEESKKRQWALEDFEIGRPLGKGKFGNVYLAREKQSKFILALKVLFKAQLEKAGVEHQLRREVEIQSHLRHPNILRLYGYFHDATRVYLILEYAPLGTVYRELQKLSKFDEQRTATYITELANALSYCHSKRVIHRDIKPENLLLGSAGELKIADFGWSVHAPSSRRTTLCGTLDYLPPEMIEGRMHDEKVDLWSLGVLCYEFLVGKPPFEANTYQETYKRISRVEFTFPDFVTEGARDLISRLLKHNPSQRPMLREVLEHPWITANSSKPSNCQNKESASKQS
- Protocol description: ADP-Glo kinase assay, Aurora A
- Type: biochemical
- Condition info: Log[nM] 3.0; Set1
Parameter Aurora A % Activity Set1: see the listing below.
Give just the number in %; leave the unit off.

Completed entries (count: 5):
| Structure notation | Test target | Unit | Aurora A % Activity Set1 |
| --- | --- | --- | --- |
| Clc1ccc(Nc2ncnc3[nH]ccc23)cc1 | aurora A kinase (AURKA) (Homo sapiens, UniProt O14965) | % | 88 |
| Fc1cc(Nc2ncnc3[nH]ccc23)ccc1Cl | aurora A kinase (AURKA) (Homo sapiens, UniProt O14965) | % | 78 |
| Clc1cccc(Nc2ncnc3[nH]ccc23)c1 | aurora A kinase (AURKA) (Homo sapiens, UniProt O14965) | % | 80 |
| Brc1ccc(Nc2ncnc3[nH]ccc23)cc1 | aurora A kinase (AURKA) (Homo sapiens, UniProt O14965) | % | 82 |
| c1ccc(Nc2ncnc3[nH]ccc23)cc1 | aurora A kinase (AURKA) (Homo sapiens, UniProt O14965) | % | 86 |

We now examine a further compound.
Prompt: Given Cc1ccc(Nc2ncnc3[nH]ccc23)cc1 , state its recorded Aurora A % Activity Set1.
Response: 87

###

- Test target: EGFR (Homo sapiens, UniProt P00533)
- Protocol description: ADP-Glo kinase assay, EGFR
- Format: biochemical
- Parameters: purchased BPS Bioscience (assay run externally by the vendor)
- Condition info: Log[nM] 3.5; Set2
Assay metric: EGFR % Activity Set2 (%)
Give just the number in %; leave the unit off.

Completed entries (count: 2):
| Structure notation | Assay metric | Data value |
| --- | --- | --- |
| Clc1cccc(Nc2ncnc3[nH]ccc23)c1 | EGFR % Activity Set2 | 0 |
| COc1ccc(Nc2ncnc3[nH]ccc23)cc1 | EGFR % Activity Set2 | 48 |

Prompt: Value wanted: EGFR % Activity Set2 (EGFR (Homo sapiens, UniProt P00533)) of entry Cc1cccc(Nc2ncnc3[nH]ccc23)c1
Response: 9

Prompt: Value wanted: EGFR % Activity Set2 (EGFR (Homo sapiens, UniProt P00533)) of entry Fc1cc(Nc2ncnc3[nH]ccc23)ccc1Cl
Response: 1
